Reported IC50 values follow for various compounds
# experimental.target: human RAF1 (Homo sapiens (Human), UniProt P04049)
# Sequence (P04049 whole entry): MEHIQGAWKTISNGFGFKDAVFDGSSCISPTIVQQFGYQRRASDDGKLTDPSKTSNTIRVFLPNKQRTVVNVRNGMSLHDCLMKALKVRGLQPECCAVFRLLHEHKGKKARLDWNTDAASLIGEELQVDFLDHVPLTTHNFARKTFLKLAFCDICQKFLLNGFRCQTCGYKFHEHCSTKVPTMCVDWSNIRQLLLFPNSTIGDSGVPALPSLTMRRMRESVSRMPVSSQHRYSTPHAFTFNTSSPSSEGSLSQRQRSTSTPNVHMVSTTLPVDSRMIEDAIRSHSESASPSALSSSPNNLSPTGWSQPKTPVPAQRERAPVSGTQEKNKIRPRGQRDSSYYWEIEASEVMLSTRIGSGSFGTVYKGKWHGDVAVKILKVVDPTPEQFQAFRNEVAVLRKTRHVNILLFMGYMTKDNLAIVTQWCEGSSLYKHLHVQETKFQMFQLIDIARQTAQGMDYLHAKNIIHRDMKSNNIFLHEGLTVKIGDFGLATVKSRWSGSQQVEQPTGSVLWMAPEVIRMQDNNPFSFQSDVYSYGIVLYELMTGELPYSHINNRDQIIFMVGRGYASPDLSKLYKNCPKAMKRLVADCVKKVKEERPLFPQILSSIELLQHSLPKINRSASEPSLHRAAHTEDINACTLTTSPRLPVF
# test.method.notes: Protein kinase assay (radiometric 33P-ATP, MEK1 (K97R) substrate), RAF-1
# Assay type: biochemical
# conditions: human MEK1 (K97R) substrate 3 micromolar, ATP 10 micromolar; 10-dose, 3-fold serial dilution starting at 10 micromolar; read-out: RAF-1 IC50

Reference set, count: 3
compound	IC50
Cc1cc(F)c(NC(=O)N2CC[C@@H](C(C)(F)F)C2)cc1-c1cc(-c2cnn(C)c2)nc(N2CCOCC2)c1 (single isomer, unassigned)	< 1 nM
Cc1ccc(NC(=O)N2CC[C@@H](CC(F)(F)F)C2)cc1-c1cc(C(=O)N[C@H](C)CO)nc(N2CCOCC2)c1	1 to 10 nM
Cc1ccc(NC(=O)N2CC[C@@H](CC(F)(F)F)C2)cc1-c1cc(C(F)F)nc(N2CCOCC2)c1	1 to 10 nM

Entry under review: `Cc1ccc(NC(=O)N2CC[C@@H](CC(F)(F)F)C2)cc1-c1cc(-c2c[nH]nc2C)nc(N2CCOCC2)c1` . Reported IC50?
1 to 10 nM

Entry under review: `CCn1cc(-c2cc(-c3cc(NC(=O)N4CC[C@@H](CC(F)(F)F)C4)ccc3C)cc(N3CCOCC3)n2)cn1` . Reported IC50?
< 1 nM

Entry under review: `Cc1cc(F)c(NC(=O)N2CC[C@@H](CC(F)(F)F)C2)cc1-c1cc(-c2cnn(C)c2)nc(N2CCOCC2)c1` . Reported IC50?
< 1 nM

Entry under review: `Cc1ccc(NC(=O)N2CC[C@@H](CC(F)(F)F)C2)cc1-c1cc(-c2nncn2C)nc(N2CCOCC2)c1` . Reported IC50?
1 to 10 nM

Entry under review: `Cc1ccc(NC(=O)N2CCO[C@@H](C(F)(F)F)C2)cc1-c1cc(-c2cnn(C)c2)nc(N2CCOCC2)c1` . Reported IC50?
1 to 10 nM

Entry under review: `Cc1ccc(NC(=O)N2CC[C@@H](CC(F)(F)F)C2)cc1-c1cc(N2CCOCC2)nc(C(C)(C)O)c1` . Reported IC50?
10 to 100 nM

Entry under review: Cc1cc(F)c(NC(=O)N2CC[C@@H](C(F)(F)C(F)(F)F)C2)cc1-c1cc(-c2cnn(C)c2)nc(N2CCOCC2)c1 (single isomer, unassigned) . Reported IC50?
1 to 10 nM

Entry under review: Cc1cc(F)c(NC(=O)N2CC[C@@H](C(C)(C)C)C2)cc1-c1cc(-c2cnn(C)c2)nc(N2CCOCC2)c1 (single isomer, unassigned) . Reported IC50?
1 to 10 nM

Entry under review: Cc1cc(F)c(NC(=O)N2CCC(C(C)(C)F)C2)cc1-c1cc(-c2cnn(C)c2)nc(N2CCOCC2)c1 (stereo not shown) . Reported IC50?
1 to 10 nM

Entry under review: `Cc1ccc(NC(=O)N2CC[C@@H](CC(F)(F)F)C2)cc1-c1cc(-c2cnc(N)[nH]2)nc(N2CCOCC2)c1` . Reported IC50?
1 to 10 nM

Entry under review: `Cc1ccc(NC(=O)N2CC[C@@H](CC(F)(F)F)C2)cc1-c1cc(-c2cn(C)cn2)nc(N2CCOCC2)c1` . Reported IC50?
1 to 10 nM

Entry under review: `Cc1ccc(NC(=O)N2CC[C@@H](CC(F)(F)F)C2)cc1-c1cc(-c2cnn(C(F)F)c2)nc(N2CCOCC2)c1` . Reported IC50?
1 to 10 nM

Entry under review: `Cc1ccc(NC(=O)N2CC[C@@H](CC(F)(F)F)C2)cc1-c1cc(-c2cncs2)nc(N2CCOCC2)c1` . Reported IC50?
1 to 10 nM

###

# experimental.target: human RAF1 (Homo sapiens (Human), UniProt P04049)
# test.method.notes: Protein kinase assay (radiometric 33P-ATP, MEK1 (K97R) substrate), RAF-1
# Format: biochemical
# conditions: human MEK1 (K97R) substrate 3 micromolar, ATP 10 micromolar; 10-dose, 3-fold serial dilution starting at 10 micromolar; read-out: RAF-1 IC50
pIC50: −log10 of the molar value.
observation.type: pIC50

Reference set, count: 6
compound	experimental.target	pIC50
Cc1ccc(NC(=O)N2CC[C@@H](CC(F)(F)F)C2)cc1-c1cc(-c2ccnc(O)c2)nc(N2CCOCC2)c1 [Example 30]	human RAF1 (Homo sapiens (Human), UniProt P04049)	8.00 to 9.00
Cc1ccc(NC(=O)N2CC[C@@H](CC(F)(F)F)C2)cc1-c1cc(-c2cn(C)nc2C)nc(N2CCOCC2)c1 [Example 37]	human RAF1 (Homo sapiens (Human), UniProt P04049)	8.00 to 9.00
CNC(=O)c1cc(-c2cc(NC(=O)N3CC[C@@H](CC(F)(F)F)C3)ccc2C)cc(N2CCOCC2)n1 [Example 3]	human RAF1 (Homo sapiens (Human), UniProt P04049)	8.00 to 9.00
Cc1ccc(NC(=O)N2CC[C@@H](CC(F)(F)F)C2)cc1-c1cc(-c2cnn(C)c2)nc(N2CCOCC2)c1 [Example 22]	human RAF1 (Homo sapiens (Human), UniProt P04049)	> 9.00
CCc1cc(-c2cc(NC(=O)N3CC[C@@H](CC(F)(F)F)C3)c(F)cc2C)cc(N2CCOCC2)n1 [Example 72]	human RAF1 (Homo sapiens (Human), UniProt P04049)	> 9.00
Cc1ccc(NC(=O)N2CC[C@@H](CC(F)(F)F)C2)cc1-c1cc(-c2c[nH]cn2)nc(N2CCOCC2)c1 [Example 53]	human RAF1 (Homo sapiens (Human), UniProt P04049)	8.00 to 9.00

Entry under review: Cc1cc(-c2cc(NC(=O)N3CC[C@@H](CC(F)(F)F)C3)ccc2C)cc(N2CCOCC2)n1 [Example 1] . Reported pIC50?
8.00 to 9.00

Entry under review: Cc1ccc(NC(=O)N2CC[C@@H](CC(F)(F)F)C2)cc1-c1cc(-c2ccnc(C(F)F)c2)nc(N2CCOCC2)c1 [Example 46] . Reported pIC50?
8.00 to 9.00

###

Reported IC50 values follow for various molecules
# experimental.target: human RAF1 (Homo sapiens (Human), UniProt P04049)
# test.method.notes: Protein kinase assay (radiometric 33P-ATP, MEK1 (K97R) substrate), RAF-1
# Type: biochemical
# conditions: human MEK1 (K97R) substrate 3 micromolar, ATP 10 micromolar; 10-dose, 3-fold serial dilution starting at 10 micromolar; read-out: RAF-1 IC50

Reference set, count: 2
Cc1cc(F)c(NC(=O)N2CCO[C@@H](C(F)(F)F)C2)cc1-c1cc(-c2cnn(C)c2)nc(N2CCOCC2)c1 < 1 nM
Cc1ccc(NC(=O)N2CC[C@@H](CC(F)(F)F)C2)cc1-c1cc(/C=C/[C@@H](C)O)nc(N2CCOCC2)c1 1 to 10 nM

Entry under review: `Cc1cc(F)c(NC(=O)N2CCO[C@H](C(F)(F)F)C2)cc1-c1cc(-c2cnn(C)c2)nc(N2CCOCC2)c1` . Reported IC50?
< 1 nM

Entry under review: `Cc1ccc(NC(=O)N2CC[C@@H](CC(F)(F)F)C2)cc1-c1cc(-c2cnn(CCO)c2)nc(N2CCOCC2)c1` . Reported IC50?
1 to 10 nM

Entry under review: `Cc1ccc(NC(=O)N2CC[C@@H](CC(F)(F)F)C2)cc1-c1cc(C(=O)NCCO)nc(N2CCOCC2)c1` . Reported IC50?
1 to 10 nM

Entry under review: `Cc1ccc(NC(=O)N2CCO[C@H](C(F)(F)F)C2)cc1-c1cc(-c2cnn(C)c2)nc(N2CCOCC2)c1` . Reported IC50?
1 to 10 nM

###

# experimental.target: human RAF1 (Homo sapiens (Human), UniProt P04049)
# test.method.notes: Protein kinase assay (radiometric 33P-ATP, MEK1 (K97R) substrate), RAF-1
# Assay type: biochemical
# conditions: human MEK1 (K97R) substrate 3 micromolar, ATP 10 micromolar; 10-dose, 3-fold serial dilution starting at 10 micromolar; read-out: RAF-1 IC50
pIC50: −log10 of the molar value.
Reported pIC50 values follow for various compounds

Reference set, count: 2
compound	experimental.target	value.observed
Cc1ccc(NC(=O)N2CC[C@@H](CC(F)(F)F)C2)cc1-c1cc(C2CCCN(C)C2)nc(N2CCOCC2)c1 (stereo partly shown) [Example 29]	human RAF1 (Homo sapiens (Human), UniProt P04049)	8.00 to 9.00
Cc1ccc(NC(=O)N2CC[C@@H](CC(F)(F)F)C2)cc1-c1cc(C(=O)NCC(C)(C)O)nc(N2CCOCC2)c1 [Example 9]	human RAF1 (Homo sapiens (Human), UniProt P04049)	8.00 to 9.00

Entry under review: Cc1ccc(NC(=O)N2CC[C@@H](CC(F)(F)F)C2)cc1-c1cc(CO)nc(N2CCOCC2)c1 [Example 60] . Reported pIC50?
8.00 to 9.00

Entry under review: Cc1ccc(NC(=O)N2CC[C@@H](CC(F)(F)F)C2)cc1-c1cc(C(N)=O)nc(N2CCOCC2)c1 [Example 2] . Reported pIC50?
8.00 to 9.00

Entry under review: Cc1ccc(NC(=O)N2CC[C@@H](CC(F)(F)F)C2)cc1-c1cc(C(=O)N[C@@H](C)CO)nc(N2CCOCC2)c1 [Example 8] . Reported pIC50?
> 9.00

Entry under review: Cc1ccc(NC(=O)N2CC=C(C(F)(F)F)C2)cc1-c1cc(-c2cnn(C)c2)nc(N2CCOCC2)c1 [Example 66] . Reported pIC50?
> 9.00

Entry under review: Cc1ccc(NC(=O)N2CC[C@@H](CC(F)(F)F)C2)cc1-c1cc(-c2ccnc(N)c2)nc(N2CCOCC2)c1 [Example 40] . Reported pIC50?
8.00 to 9.00

Entry under review: Cc1ccc(NC(=O)N2CC[C@@H](OC(F)(F)F)C2)cc1-c1cc(-c2cnn(C)c2)nc(N2CCOCC2)c1 [Example 64] . Reported pIC50?
8.00 to 9.00

Entry under review: Cc1cc(F)c(NC(=O)N2CC[C@H](C(F)(F)F)C2)cc1-c1cc(-c2cnn(C)c2)nc(N2CCOCC2)c1 [Example 76] . Reported pIC50?
> 9.00

Entry under review: Cc1cc(F)c(NC(=O)N2CC=C(CC(F)(F)F)C2)cc1-c1cc(-c2cnn(C)c2)nc(N2CCOCC2)c1 [Example 77] . Reported pIC50?
> 9.00
